- assay system: Protein arginine N-methyltransferase 5 (Homo sapiens)
- Sequence (O14744 whole entry): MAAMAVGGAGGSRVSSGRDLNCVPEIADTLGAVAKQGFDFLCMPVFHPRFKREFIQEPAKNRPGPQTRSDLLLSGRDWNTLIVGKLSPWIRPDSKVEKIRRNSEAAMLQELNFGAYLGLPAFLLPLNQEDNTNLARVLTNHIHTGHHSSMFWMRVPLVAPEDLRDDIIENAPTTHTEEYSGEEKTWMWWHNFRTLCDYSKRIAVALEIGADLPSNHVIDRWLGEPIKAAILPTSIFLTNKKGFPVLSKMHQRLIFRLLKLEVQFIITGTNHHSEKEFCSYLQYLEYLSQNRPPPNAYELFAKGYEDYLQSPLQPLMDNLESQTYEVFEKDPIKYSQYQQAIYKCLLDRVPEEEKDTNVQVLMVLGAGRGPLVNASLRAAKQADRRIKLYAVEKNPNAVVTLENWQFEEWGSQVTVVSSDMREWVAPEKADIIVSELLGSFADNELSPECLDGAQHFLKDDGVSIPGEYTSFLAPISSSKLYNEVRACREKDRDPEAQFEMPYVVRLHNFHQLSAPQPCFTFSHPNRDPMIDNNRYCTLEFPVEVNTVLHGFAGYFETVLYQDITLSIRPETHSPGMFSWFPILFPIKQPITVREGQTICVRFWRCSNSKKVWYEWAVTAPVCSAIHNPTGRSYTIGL
- assay info: Affinity Biochemical interaction: (inhibition of histone H4 methylation) EUB0002319a PRMT5
- Format: functional
- Design: mode of action Inhibitor, recommended concentration 1 uM
observed property: IC50 (nM)
Write the number in nM without appending the unit.

Given Nc1ncnc2c1ncn2[C@@H]1O[C@H](C[C@@H](N)CC[C@H](N)C(=O)O)[C@@H](O)[C@H]1O , respond with its IC50.
690

---

- assay system: Monocarboxylate transporter 1 (Homo sapiens, UniProt P53985)
- Sequence (P53985 whole entry): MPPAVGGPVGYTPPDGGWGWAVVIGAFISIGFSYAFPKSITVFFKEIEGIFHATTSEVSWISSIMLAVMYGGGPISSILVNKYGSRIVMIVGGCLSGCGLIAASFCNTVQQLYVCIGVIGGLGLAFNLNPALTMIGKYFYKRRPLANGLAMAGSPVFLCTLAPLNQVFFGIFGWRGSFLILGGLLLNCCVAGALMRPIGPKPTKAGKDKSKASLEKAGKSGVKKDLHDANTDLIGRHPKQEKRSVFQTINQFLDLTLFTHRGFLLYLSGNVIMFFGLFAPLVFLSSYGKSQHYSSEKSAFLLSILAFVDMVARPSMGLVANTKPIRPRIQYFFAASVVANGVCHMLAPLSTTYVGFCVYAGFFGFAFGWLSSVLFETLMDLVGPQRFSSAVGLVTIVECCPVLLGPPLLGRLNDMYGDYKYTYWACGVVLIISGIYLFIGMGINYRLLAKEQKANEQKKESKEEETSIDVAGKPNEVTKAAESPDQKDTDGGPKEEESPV
- assay info: Affinity Biochemical interaction: (Displacement of radiolabelled [3H]-BAY-8002) EUB0001677b SLC16A1
observed property: pKi
Scale: pKi equals -log10([C]), with [C] in mol/L.

Return pKi (reported value) for this compound: O=C(Nc1ccccc1C(=O)O)c1cc(S(=O)(=O)c2ccccc2)ccc1Cl
8.30
